Values from patent US20250136606A1

Molecular target: TRPML3 (Homo sapiens, UniProt Q8TDD5)
Construct: expressed in transfected cells
Sequence (Q8TDD5 whole entry): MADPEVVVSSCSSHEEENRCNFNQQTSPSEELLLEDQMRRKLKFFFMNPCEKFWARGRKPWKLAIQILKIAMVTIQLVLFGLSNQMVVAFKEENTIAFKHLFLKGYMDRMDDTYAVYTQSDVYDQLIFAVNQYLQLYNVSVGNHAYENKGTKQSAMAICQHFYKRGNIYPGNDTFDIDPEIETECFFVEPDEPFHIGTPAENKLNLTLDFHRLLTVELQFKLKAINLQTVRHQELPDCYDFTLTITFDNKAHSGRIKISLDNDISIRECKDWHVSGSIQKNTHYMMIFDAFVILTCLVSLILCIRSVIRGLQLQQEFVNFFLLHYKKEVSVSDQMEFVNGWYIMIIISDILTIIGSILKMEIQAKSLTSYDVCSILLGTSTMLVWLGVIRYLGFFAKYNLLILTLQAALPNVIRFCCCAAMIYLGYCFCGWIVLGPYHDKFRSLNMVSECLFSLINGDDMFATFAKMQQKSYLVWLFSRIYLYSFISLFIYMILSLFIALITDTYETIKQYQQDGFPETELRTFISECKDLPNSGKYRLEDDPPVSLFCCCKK
Experiment: Fluorescent TRPML3 assay (performed as for TRPML1, substituting the TRPML3 subtype)
Format: cell-based
Conditions: fluorescent calcium assay
pEC50: −log10 of the molar value.
measureName: pEC50

Field: example entries. Status: answers known.
compound	testedSystem	pEC50
Cc1nccnc1-c1cn(-c2cccc(Cl)c2)c2ncnc(N3C[C@@H](C)N(C(=O)OC(C)(C)C)C[C@@H]3C)c12	TRPML3 (Homo sapiens, UniProt Q8TDD5)	> 7.00
COC(=O)c1nccnc1-c1cn(-c2cccc(Cl)c2)c2ncnc(N3CCN(C(=O)OC(C)(C)C)C[C@@H]3C)c12	TRPML3 (Homo sapiens, UniProt Q8TDD5)	5.70 to 6.30
C[C@H]1CN(C(=O)OC(C)(C)C)CCN1c1ncnc2c1c(C1CC1)cn2-c1ncc(C#N)s1	TRPML3 (Homo sapiens, UniProt Q8TDD5)	6.30 to 7.00
C[C@@H]1CN(c2ncnc3c2c(-c2cccnc2)cn3-c2cccc(Cl)c2)[C@@H](C)CN1C(=O)OC(C)(C)C	TRPML3 (Homo sapiens, UniProt Q8TDD5)	> 7.00

Query: pEC50; subject: `C[C@@H]1CN(c2ncnc3c2c(N2CCC[C@H]2C)cn3-c2cccc(Cl)c2)CCN1C(=O)OC(C)(C)C`
5.70 to 6.30

Now the compound `C[C@H]1CN(C(=O)OC(C)(C)C)CCN1c1ncnc2c1c(C1CC1)cn2C1CCCC1`
6.30 to 7.00

Okay, and `COc1cccc(-n2cc(-c3cccnc3)c3c(N4CCN(C(=O)OC(C)(C)C)C[C@@H]4C)ncnc32)c1` ?
6.30 to 7.00

Please answer likewise for `C[C@H]1CN(C(=O)OC(C)(C)C(F)(F)F)CCN1c1ncnc2c1c(C1CC1)cn2C1CCCCC1`
> 7.00

Do the same for `C[C@@H]1CN(C(=O)OC(C)(C)C(F)(F)F)CCN1c1ncnc2c1c(C1CC1)cn2-c1ccc(Cl)cc1` please
> 7.00

Param item: `Cc1nc(-n2cc(-c3ccccc3F)c3c(N4CCN(C(=O)OC(C)(C)C)C[C@@H]4C)ncnc32)sc1C#N`
> 7.00

Try `C[C@@H]1CN(c2ncnc3c2c(C2CC2)cn3-c2cc(Cl)ccc2F)CCN1C(=O)OC(C)(C)C` next.
> 7.00

And then `C[C@H]1CN(C(=O)OC(C)(C)C)CCN1c1ncnc2c1c(N1CCC1)cn2-c1cccc(C#N)c1` , what is it?
> 7.00
